Listed below: self-cleavage values for each entry.
B1: LINE1-mini (parent)
chain: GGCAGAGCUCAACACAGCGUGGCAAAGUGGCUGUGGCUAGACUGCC

# Variants of: B1
# measurement-protocol: self-cleavage, relative activity (ratio to wild type); higher = more cleavage; in vitro, sequencing; the parent is a self-cleaving ribozyme
measured-property: self-cleavage

{"mutation-annotation": "A11U C18A", "measured": 0.07}
{"mutation-annotation": "G27C U43C", "measured": 0.07}
{"mutation-annotation": "A26G A41G", "measured": 0.2}
{"mutation-annotation": "C10A C18U", "measured": 0.07}
{"mutation-annotation": "C13A U28A", "measured": 0.07}
{"mutation-annotation": "A16C G44U", "measured": 0.07}
{"mutation-annotation": "U20A G33U", "measured": 0.07}
{"mutation-annotation": "A6C U28G", "measured": 0.2}
